These entries and their values trace back to patent US20180354962A1.

pIC50: −log10 of the molar value.
Quick record of pIC50 values for UniProt P11712.

INSERT INTO assay_data (compound, endpoint_result) VALUES
  ('Cc1cc(OCCC(C)(C)O)cc(C)c1-c1cccc2c1CC[C@H]2Oc1ccc2c(c1)OC[C@H]2CC(=O)O [7 (WO 2013/144098), reference compound]', '< 5.00'),
  ('Cc1cc(OCC(C)(C)O)cc(C)c1-c1cccc2c1CC[C@H]2Nc1cnc2c(c1)OCC2CC(=O)O (stereo partly shown)', '< 4.30'),
  ('N#CC1(c2ccccc2-c2cccc3c2CC[C@H]3Nc2cnc3c(c2)OCC3CC(=O)O)CC1 (stereo partly shown)', '< 4.30');

For every item below, please supply its pIC50.
1. Cc1cc(-c2nnn(C)n2)cc(C)c1-c1ccc(F)c2c1CC[C@H]2Oc1ccc2c(c1)OC[C@H]2CC(=O)O [95 (WO 2013/144097), reference compound]
2. Cc1cc(OC2CCOCC2)cc(C)c1-c1cccc2c1CC[C@H]2Nc1cnc2c(c1)OCC2CC(=O)O (stereo partly shown)
3. Cc1cc(-c2nnn(CC(C)(C)O)n2)cc(C)c1-c1cccc2c1CC[C@H]2Nc1cnc2c(c1)OCC2CC(=O)O (stereo partly shown)
4. CCc1cccc(CC)c1-c1cccc2c1CC[C@H]2Nc1cnc2c(c1)OCC2CC(=O)O (stereo partly shown)

Given back:
4.72
< 4.30
< 4.30
4.31

* * *

Exercise: state measured EC50 for each of the compounds provided.
# SYSTEM: human GPR40 receptor (Homo sapiens, UniProt O14842)
# Sequence (O14842 whole entry): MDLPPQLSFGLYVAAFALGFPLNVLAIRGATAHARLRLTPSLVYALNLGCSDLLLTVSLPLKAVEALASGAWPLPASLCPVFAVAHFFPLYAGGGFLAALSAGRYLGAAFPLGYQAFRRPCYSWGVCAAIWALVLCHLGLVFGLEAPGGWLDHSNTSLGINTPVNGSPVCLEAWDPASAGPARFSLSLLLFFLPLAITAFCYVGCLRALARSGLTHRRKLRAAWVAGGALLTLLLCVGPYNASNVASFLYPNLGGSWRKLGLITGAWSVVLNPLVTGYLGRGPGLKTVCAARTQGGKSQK
# EXPERIMENTAL DETAILS: IP1 accumulation measurements using the IPOne assay system
# COND: 1321N1 cells stably expressing human GPR40; 1 h stimulation at 37° C.
# Method: IP1 accumulation measurements using the IPOne assay system—1321N1 cells stably expressing human GPR40 receptor (Euroscreen, Belgium) are seeded 24 h before the assay in white 384-well plates in culture medium containing 10% FCS, 1% Na-Pyruvate and 400 μg/mL G418. IP1 is assayed according to the manufacturer's description (Cisbio Bioassays, France). […] After an incubation time of 1 h at room temperature plates are measured using an EnVision™, Perkin Elmer. […]
Answers are plain numbers, in nM.

Example results:
INSERT INTO assay_data (compound, system, endpoint_result) VALUES
  ('N#CC1(c2ccccc2-c2cccc3c2CC[C@H]3Nc2cnc3c(c2)OCC3CC(=O)O)CC1 (stereo partly shown)', 'human GPR40 receptor (Homo sapiens, UniProt O14842)', 6390),
  ('COc1cc(F)c(-c2cccc3c2CC[C@H]3Nc2cnc3c(c2)OCC3CC(=O)O)c(F)c1 (stereo partly shown)', 'human GPR40 receptor (Homo sapiens, UniProt O14842)', 1240),
  ('Cc1cc(OCCC(C)(C)O)cc(C)c1-c1ccc(F)c2c1CC[C@H]2Nc1cnc2c(c1)OC[C@H]2CC(=O)O', 'human GPR40 receptor (Homo sapiens, UniProt O14842)', 61),
  ('Cc1cc(OCC(C)(C)C#N)cc(C)c1-c1cccc2c1CC[C@H]2Nc1cnc2c(c1)OCC2CC(=O)O (stereo partly shown)', 'human GPR40 receptor (Homo sapiens, UniProt O14842)', 153),
  ('CC(C)c1ccccc1-c1cccc2c1CC[C@H]2Nc1cnc2c(c1)OCC2CC(=O)O (stereo partly shown)', 'human GPR40 receptor (Homo sapiens, UniProt O14842)', 184);

For every item below, please supply its EC50.
1. Cc1cc(-c2cc(=O)n(C)cn2)cc(C)c1-c1cccc2c1CC[C@H]2Nc1cnc2c(c1)OCC2CC(=O)O (stereo partly shown)
2. O=C(O)CC1COc2cc(N[C@@H]3CCc4c(-c5ccccc5C(F)(F)F)cccc43)cnc21 (stereo partly shown)

Given back:
33
693

* * *

# EXPERIMENTAL DETAILS: Aqueous solubility from DMSO stock, LC-UV
# Assay type: physicochemical
# COND: aqueous buffer, kinetic from dmso stock; buffer pH 2.2, 24 h shaking, 2.5% DMSO
METRIC: solubility at 24 h (µg/mL)
One number for each entry, in µg/mL.

INSERT INTO assay_data (compound, metric, scale_unit, endpoint_result) VALUES
  ('Cc1ccc(Cl)c(-c2cccc3c2CC[C@H]3Nc2cnc3c(c2)OCC3CC(=O)O)c1Cl (stereo partly shown)', 'solubility at 24 h', 'µg/mL', 1),
  ('Cc1cc(-c2nnn(CC(C)(C)O)n2)cc(C)c1-c1cccc2c1CC[C@H]2Nc1cnc2c(c1)OCC2CC(=O)O (stereo partly shown)', 'solubility at 24 h', 'µg/mL', 45);

For every item below, please supply its solubility at 24 h.
1. O=C(O)CC1COc2cc(N[C@@H]3CCc4c(-c5ccccc5C(F)(F)F)cccc43)cnc21 (stereo partly shown)
2. CCc1cccc(CC)c1-c1cccc2c1CC[C@H]2Nc1cnc2c(c1)OCC2CC(=O)O (stereo partly shown)

Given back:
22
6

For every item below, please supply its solubility at 24 h.
1. N#Cc1cccc(C#N)c1-c1cccc2c1CC[C@H]2Nc1cnc2c(c1)OCC2CC(=O)O (stereo partly shown)
2. Cc1cc(-c2cc(=O)n(C)cn2)cc(C)c1-c1cccc2c1CC[C@H]2Nc1cnc2c(c1)OCC2CC(=O)O (stereo partly shown)

Given back:
84
78

* * *

# SYSTEM: cytochrome P450 2C9-isoenzyme (Homo sapiens)
# Construct: is assayed at 37° C. with human liver microsomes; from tissue; host or cells: human liver microsomes
# Sequence (P11712 whole entry): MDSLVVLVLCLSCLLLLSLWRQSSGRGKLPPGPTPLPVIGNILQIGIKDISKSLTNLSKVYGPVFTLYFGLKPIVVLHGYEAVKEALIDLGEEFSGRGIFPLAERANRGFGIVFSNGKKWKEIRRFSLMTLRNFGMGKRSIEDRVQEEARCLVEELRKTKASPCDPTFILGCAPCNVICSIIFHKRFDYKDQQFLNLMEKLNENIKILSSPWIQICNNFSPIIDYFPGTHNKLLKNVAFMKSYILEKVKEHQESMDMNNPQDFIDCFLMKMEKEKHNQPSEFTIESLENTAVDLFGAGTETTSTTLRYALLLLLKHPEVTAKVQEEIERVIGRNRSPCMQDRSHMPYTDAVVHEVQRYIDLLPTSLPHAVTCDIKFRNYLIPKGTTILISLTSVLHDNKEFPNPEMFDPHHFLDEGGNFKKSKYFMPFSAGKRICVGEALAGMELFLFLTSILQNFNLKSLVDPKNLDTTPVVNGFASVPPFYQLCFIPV
# EXPERIMENTAL DETAILS: Inhibition of CYP-2C9 (diclofenac hydroxylation, human liver microsomes)
# Format: in vitro ADME
# COND: human liver microsomes 0.1 mg/mL, diclofenac 10 μM, 37° C.
# Method: All assays are carried out on a robotic system in 96 well plates. […] Peak area analyte (=metabolite formed) and internal standard is determined by LC-MS/MS. […] Within each of the assay runs, the IC50 of a positive control inhibitor (sulfaphenazole) is determined. […]
Exercise: state measured IC50 for each of the compounds provided.

Example results:
INSERT INTO measurements (compound, metric, endpoint_result) VALUES
  ('Cc1cc(OCCC(C)(C)O)cc(C)c1-c1cccc2c1CC[C@H]2Nc1cnc2c(c1)OC[C@H]2CC(=O)O [Example 4]', 'IC50', '> 50 µM'),
  ('Cc1cc(OCC(C)(C)C#N)cc(C)c1-c1cccc2c1CC[C@H]2Nc1cnc2c(c1)OCC2CC(=O)O (some centres unmarked) [Example 123]', 'IC50', '28 µM'),
  ('Cc1cc(C(=O)N(C)C)cc(C)c1-c1cccc2c1CC[C@H]2Nc1cnc2c(c1)OCC2CC(=O)O (some centres unmarked) [Example 126]', 'IC50', '> 50 µM'),
  ('Cc1cc(-c2cc(=O)n(C)cn2)cc(C)c1-c1cccc2c1CC[C@H]2Nc1cnc2c(c1)OCC2CC(=O)O (some centres unmarked) [Example 133]', 'IC50', '> 50 µM');

# lookup: O=C(O)CC1COc2cc(N[C@@H]3CCc4c(-c5ccccc5C(F)(F)F)cccc43)cnc21 (some centres unmarked) [Example 125] on cytochrome P450 2C9-isoenzyme (Homo sapiens), IC50 = 47 µM
